Known IC50 of a selection of molecules
- Test system: H1299 p53 Y220C
- measurementProtocol: Cell Proliferation Assay (CellTiter-Glo, CTG), H1299 p53 Y220C (NClH1299-inducible p53 Y220C)
- Format: cell-based
- conditionDescription: Homo sapiens, NCI-H1299, 120 h, CellTiter-Glo, H1299 p53 Y220C, 5 days

CCNC(=O)c1ccc(OC)c(NCC#Cc2nc3c(N[C@@H]4CCN(C)C[C@@H]4F)cccn3c2SC(F)(F)F)c1: < 750 nM
COc1cc(S(=O)(=O)C2CC2)ccc1NCC#Cc1nc2c(N[C@@H]3CCN(C)C[C@@H]3F)cccn2c1SC(F)(F)F: < 750 nM
CCS(=O)(=O)c1ccc(NCC#Cc2nc3c(N[C@@H]4CCN(C)C[C@@H]4F)cccn3c2SC(F)(F)F)c(OC)c1: < 750 nM

Entry CNC(=O)Nc1cc(NC2CCN(C)CC2)c2nc(C#CCNc3ccc(C(=O)NC)cc3OC)c(CC(F)(F)F)n2c1 needs its IC50 filled in; supply it. > 3000 nM

Entry CNC(=O)c1ccc(NCC#Cc2nc3c(N[C@@H]4CCN(CC(C)(C)O)C[C@@H]4F)cccn3c2SC(F)(F)F)c(OC)c1 needs its IC50 filled in; supply it. < 750 nM

Entry COc1ccc(-c2ncc[nH]2)cc1NCC#Cc1nc2c(N[C@@H]3CCN(C)C[C@@H]3F)cccn2c1SC(F)(F)F needs its IC50 filled in; supply it. < 750 nM
